# phosphorylation enrichment per entry
Target: EPHB1 (UniProt P54762)
Sequence (P54762 whole entry, looked up): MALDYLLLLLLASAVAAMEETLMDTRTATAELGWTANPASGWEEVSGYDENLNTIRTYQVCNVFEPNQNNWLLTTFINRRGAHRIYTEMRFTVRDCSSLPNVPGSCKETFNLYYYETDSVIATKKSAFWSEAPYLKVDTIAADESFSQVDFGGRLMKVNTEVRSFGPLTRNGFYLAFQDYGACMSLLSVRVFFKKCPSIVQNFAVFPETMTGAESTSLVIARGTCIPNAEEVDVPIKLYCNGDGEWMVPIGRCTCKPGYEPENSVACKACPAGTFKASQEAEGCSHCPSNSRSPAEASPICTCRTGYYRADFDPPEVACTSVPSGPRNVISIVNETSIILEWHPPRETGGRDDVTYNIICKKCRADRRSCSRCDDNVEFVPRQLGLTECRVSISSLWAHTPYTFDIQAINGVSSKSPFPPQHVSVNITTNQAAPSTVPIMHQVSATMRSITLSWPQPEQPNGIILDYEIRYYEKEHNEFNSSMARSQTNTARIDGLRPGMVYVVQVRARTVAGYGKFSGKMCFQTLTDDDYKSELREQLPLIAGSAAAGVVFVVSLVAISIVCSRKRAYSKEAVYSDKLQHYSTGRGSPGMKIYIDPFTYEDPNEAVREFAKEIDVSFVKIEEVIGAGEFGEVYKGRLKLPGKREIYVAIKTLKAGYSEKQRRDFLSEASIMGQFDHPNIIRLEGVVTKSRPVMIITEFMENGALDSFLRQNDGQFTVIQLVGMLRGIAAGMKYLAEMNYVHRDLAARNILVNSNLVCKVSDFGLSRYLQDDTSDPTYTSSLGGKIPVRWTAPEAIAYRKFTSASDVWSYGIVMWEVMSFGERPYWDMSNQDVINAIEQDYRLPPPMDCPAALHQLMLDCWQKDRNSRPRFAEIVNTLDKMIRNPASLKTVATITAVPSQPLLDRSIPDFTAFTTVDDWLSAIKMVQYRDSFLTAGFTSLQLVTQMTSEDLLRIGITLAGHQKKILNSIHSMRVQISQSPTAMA
Assay: phosphorylation enrichment, bacterial display (enrichment ratio); higher = better substrate or ligand; peptides without Tyr show the background
Write the value as a bare number.

Answered examples (3):
PSQRHYVFFFS [PTEN_Y174_R173H_YF]
0.926
DPFHVYIKNHV [KCNE3_Y95_R99H_YF]
0.671
QTLTDYDIRFY [CSNK2A1_Y131]
0.825

Q) // query phosphorylation enrichment value for entry PVKSEYPSIKL [NPC2_Y119]
A) 0.358

Q) // query phosphorylation enrichment value for entry HDRREYSRFEK [ITGB7_Y758_Y753H]
A) 0.754

Q) // query phosphorylation enrichment value for entry LHNLFYQLEAE [PKP2_Y616_S615F]
A) 1.35

Q) // query phosphorylation enrichment value for entry RAEAQYLLVSN [LRIG1_Y1054]
A) 0.639

Q) // query phosphorylation enrichment value for entry HKANEYFPVVI [ADAMTS18_Y764_L769I_YF]
A) 0.762

Q) // query phosphorylation enrichment value for entry VFAPDYIAGVS [NOB1_Y366]
A) 0.657

----------
Test system: c-Abl (mouse)
Experiment: phosphorylation enrichment, bacterial display (enrichment ratio); higher = better substrate or ligand; peptides without Tyr show the background
Classification field: enter t for phosphorylation enrichment values not below 0.6, f for values below it.

DPADRYLIEQC [CDKL5_Y286_T288I]
t
DGYIDYAEFAK [MCFD2_Y138]
t
DPFHVYIKNHV [KCNE3_Y95_R99H_YF]
t
EKMWTYMPSAE [GRIA4_Y695_R697P]
f
FLAVGDHKPHI [IDS_Y225_Y225D]
f

Q) I'd appreciate it if you could say whether KMKGDYYRYLA [YWHAG_Y130] has phosphorylation enrichment at least equal to 0.6.
A) t

Q) I'd appreciate it if you could say whether THQNSYQPGRK [CEFIP_Y210] has phosphorylation enrichment at least equal to 0.6.
A) f

Q) I'd appreciate it if you could say whether GVRFTYTIDGS [DCX_Y105_I104T_YF] has phosphorylation enrichment at least equal to 0.6.
A) t

Q) I'd appreciate it if you could say whether TFEFKYPEGSS [TGM4_Y440_YF] has phosphorylation enrichment at least equal to 0.6.
A) t

Q) I'd appreciate it if you could say whether KDFETYQPFQN [CTNND2_Y1157_YF] has phosphorylation enrichment at least equal to 0.6.
A) t

----------
Molecular target: c-Src SH2
Experiment: SH2 binding enrichment of the phosphorylated peptide, bacterial display (enrichment ratio); higher = better substrate or ligand; peptides without Tyr show the background
Classification field: enter condition met for SH2 binding enrichment values not below 0.5, condition not met for values below it.

Some solved cases for reference:
HKANEYFPVVI [ADAMTS18_Y764_L769I_YF]
condition not met
KVFRVYQGQQP [MUTYH_Y494]
condition met
GKMSSYAFFVQ [HMGB1_Y16]
condition met

Q) I'd appreciate it if you could say whether PTFKHYANSTQ [SLC12A3_Y70_E68K_YF] has SH2 binding enrichment at least equal to 0.5.
A) condition not met

Q) I'd appreciate it if you could say whether FLAVGDHKPHI [IDS_Y225_Y225D] has SH2 binding enrichment at least equal to 0.5.
A) condition not met

Q) I'd appreciate it if you could say whether TAGEPYHDIRF [BAP1_Y223] has SH2 binding enrichment at least equal to 0.5.
A) condition met

Q) I'd appreciate it if you could say whether DLSEVYKPRRK [CCDC93_Y176] has SH2 binding enrichment at least equal to 0.5.
A) condition not met

Q) I'd appreciate it if you could say whether LYNQDYPIHCV [GATM_Y227_S231C] has SH2 binding enrichment at least equal to 0.5.
A) condition met

Q) I'd appreciate it if you could say whether DPADRYLIEQC [CDKL5_Y286_T288I] has SH2 binding enrichment at least equal to 0.5.
A) condition met

Q) I'd appreciate it if you could say whether CEHFSYYGMKA [SLC15A2_Y60_R57H] has SH2 binding enrichment at least equal to 0.5.
A) condition met

Q) I'd appreciate it if you could say whether RIFDYYSARKT [STOX1_Y858_A863T] has SH2 binding enrichment at least equal to 0.5.
A) condition met

Q) I'd appreciate it if you could say whether RSGNCYLDIRP [FBN1_Y1535] has SH2 binding enrichment at least equal to 0.5.
A) condition met

Q) I'd appreciate it if you could say whether TCFDKYTGNTF [FN1_Y101_YF] has SH2 binding enrichment at least equal to 0.5.
A) condition not met

----------
Target: EPHB1 (UniProt P54762)
Assay: phosphorylation enrichment, bacterial display (enrichment ratio); higher = better substrate or ligand; peptides without Tyr show the background
measured metric: phosphorylation enrichment
Write the value as a bare number.

Answered examples (4):
SAGSSYSISVI [PAX5_Y179_G183V]
0.553
YETVKYFNNER [ABCB7_Y345]
0.792
KRIKSYNQEND [RPGRIP1L_Y448_L447S]
0.442
IGEVVYQRAAM [GRIN2A_Y502_V506A]
0.442

Q) Field: phosphorylation enrichment (EPHB1 (UniProt P54762)). Entry: IVKAYYVRARA [AIPL1_Y268]
A) 0.358

Q) Field: phosphorylation enrichment (EPHB1 (UniProt P54762)). Entry: VDGSLYETHPQ [HK1_Y417_K418E]
A) 1.5

Q) Field: phosphorylation enrichment (EPHB1 (UniProt P54762)). Entry: RIFDYYSARKT [STOX1_Y858_A863T]
A) 0.521

Q) Field: phosphorylation enrichment (EPHB1 (UniProt P54762)). Entry: KNNDGNIDFAE [MCFD2_Y135_Y135N_YF]
A) 0.504

----------
Target: Jak2 (UniProt O60674)
Sequence (O60674 whole entry, looked up): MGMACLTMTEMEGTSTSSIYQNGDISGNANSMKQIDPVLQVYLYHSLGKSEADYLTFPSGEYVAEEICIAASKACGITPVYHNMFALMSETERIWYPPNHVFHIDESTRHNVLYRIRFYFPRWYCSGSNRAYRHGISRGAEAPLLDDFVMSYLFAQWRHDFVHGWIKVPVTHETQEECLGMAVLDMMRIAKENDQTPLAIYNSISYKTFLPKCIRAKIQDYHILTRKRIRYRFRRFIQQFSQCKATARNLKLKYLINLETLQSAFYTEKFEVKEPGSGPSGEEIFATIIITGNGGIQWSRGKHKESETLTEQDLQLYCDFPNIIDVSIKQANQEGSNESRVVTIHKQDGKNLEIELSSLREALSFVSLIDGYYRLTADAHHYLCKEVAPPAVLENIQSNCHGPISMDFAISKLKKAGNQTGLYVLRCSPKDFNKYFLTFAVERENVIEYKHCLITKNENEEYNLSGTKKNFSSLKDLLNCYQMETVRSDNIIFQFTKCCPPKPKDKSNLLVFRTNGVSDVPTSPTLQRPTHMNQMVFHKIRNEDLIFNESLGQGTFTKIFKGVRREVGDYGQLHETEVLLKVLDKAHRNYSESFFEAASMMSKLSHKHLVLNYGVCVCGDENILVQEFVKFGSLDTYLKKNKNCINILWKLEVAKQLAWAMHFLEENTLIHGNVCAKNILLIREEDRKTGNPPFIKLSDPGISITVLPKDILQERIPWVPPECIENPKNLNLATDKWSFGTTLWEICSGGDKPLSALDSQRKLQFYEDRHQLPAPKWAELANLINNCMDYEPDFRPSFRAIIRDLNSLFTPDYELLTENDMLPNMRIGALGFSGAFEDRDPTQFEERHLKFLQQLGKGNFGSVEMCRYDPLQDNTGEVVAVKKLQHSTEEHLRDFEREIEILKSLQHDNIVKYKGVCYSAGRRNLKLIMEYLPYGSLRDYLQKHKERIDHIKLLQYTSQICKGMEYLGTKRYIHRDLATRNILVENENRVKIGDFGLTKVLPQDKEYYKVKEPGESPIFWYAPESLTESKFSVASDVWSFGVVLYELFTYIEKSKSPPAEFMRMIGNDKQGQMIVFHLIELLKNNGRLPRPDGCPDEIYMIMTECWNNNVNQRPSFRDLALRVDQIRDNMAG
Test: phosphorylation enrichment, bacterial display (enrichment ratio); higher = better substrate or ligand; peptides without Tyr show the background
measured metric: phosphorylation enrichment
Write the value as a bare number.

NHYKIYNPCAE [PTEN_Y68_L70P]
0.569
ELANLYHHVCM [BICD2_Y538]
1.23
MDYRSYPREYG [RBM10_Y44]
0.515

Q) // query phosphorylation enrichment value for entry LEFNEYFRDLN [HPRT1_Y198_D194E_YF]
A) 1.25

Q) // query phosphorylation enrichment value for entry EAAFVYAISSA [WNT4_Y113]
A) 1.36

Q) // query phosphorylation enrichment value for entry TFEFKYPEGSS [TGM4_Y440_YF]
A) 0.765

Q) // query phosphorylation enrichment value for entry TIQIMYGCDVG [HLA-A_Y123]
A) 1.64

Q) // query phosphorylation enrichment value for entry YASALYGQRRS [FGF11_Y162_R163G]
A) 0.604

Q) // query phosphorylation enrichment value for entry QLQVFYATRDQ [MIPEP_Y579_L582R]
A) 1.96

Q) // query phosphorylation enrichment value for entry FDGGCYEQLFV [MC4R_Y41_S36Y_YF]
A) 1.43

Q) // query phosphorylation enrichment value for entry RRNEEYCLLAS [ITK_Y198_D202A]
A) 0.741

----------
Test system: c-Abl (mouse)
Test: phosphorylation enrichment, bacterial display (enrichment ratio); higher = better substrate or ligand; peptides without Tyr show the background
measured metric: phosphorylation enrichment
Write the value as a bare number.

Answered examples (4):
DRQASYLDKVR [KRT16_Y131_L128Q]
0.494
RLLVVYSWTQR [HBB_Y36_P37S]
1
EDSEYYKAFEE [CASQ2_Y179]
0.793
RRVEPYGENFN [APOA4_Y310]
0.707

Q) // query phosphorylation enrichment value for entry ENRKYYKDLKE [PURA_Y156_M157K]
A) 0.549

Q) // query phosphorylation enrichment value for entry LFSLGYHQSLW [GANAB_Y396_R400L]
A) 0.666

Q) // query phosphorylation enrichment value for entry SGIYQYNIAKF [FOXL2_Y83_I84N]
A) 4.58

----------
# SH2 binding enrichment per entry
Target: Grb2 SH2 (UniProt P62993)
Sequence (P62993 whole entry, looked up): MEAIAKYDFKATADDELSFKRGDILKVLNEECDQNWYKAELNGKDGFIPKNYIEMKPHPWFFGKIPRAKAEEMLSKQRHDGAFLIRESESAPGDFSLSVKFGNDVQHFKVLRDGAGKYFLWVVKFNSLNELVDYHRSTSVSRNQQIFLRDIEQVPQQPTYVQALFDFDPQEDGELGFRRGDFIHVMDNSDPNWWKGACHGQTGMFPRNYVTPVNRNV
Test: SH2 binding enrichment of the phosphorylated peptide, bacterial display (enrichment ratio); higher = better substrate or ligand; peptides without Tyr show the background
Write the value as a bare number.

LFEDRYLLGPS [ASS1_Y87_T91P_YF]
0.965
ARTNEYKIIRT [INA_Y87]
0.877

Q) // query SH2 binding enrichment value for entry VTQEPYELFCE [CBL_Y368_Q367P_YF]
A) 1.01

Q) // query SH2 binding enrichment value for entry ANSSFHSTRSA [NUMA1_Y1836_Y1836H]
A) 0.749

Q) // query SH2 binding enrichment value for entry DIDKIYVRTGI [PIK3CA_Y355]
A) 0.864

Q) // query SH2 binding enrichment value for entry RNFGTYTAGLS [RHBDD1_Y264_D262G_YF]
A) 0.631

Q) // query SH2 binding enrichment value for entry RKGGSYTQAAS [HLA-A_Y344]
A) 1.07

Q) // query SH2 binding enrichment value for entry NHYKIYNPCAE [PTEN_Y68_L70P]
A) 0.752

Q) // query SH2 binding enrichment value for entry VNFDYYTVNLG [GFPT1_Y367_D366Y]
A) 1.04

Data credit: the supplement of paper PMC10065799
